Reference source for all entries: patent US12528815B2

# TARGET OR TEST SYSTEM: human adenosine A1 receptor (Homo sapiens)
# Construct: expressed in transfected cells; host or cells: HEK293 cells infected with BacMam (the same paragraph also labels the preparation CHO-hA1)
# Sequence (P30542 whole entry): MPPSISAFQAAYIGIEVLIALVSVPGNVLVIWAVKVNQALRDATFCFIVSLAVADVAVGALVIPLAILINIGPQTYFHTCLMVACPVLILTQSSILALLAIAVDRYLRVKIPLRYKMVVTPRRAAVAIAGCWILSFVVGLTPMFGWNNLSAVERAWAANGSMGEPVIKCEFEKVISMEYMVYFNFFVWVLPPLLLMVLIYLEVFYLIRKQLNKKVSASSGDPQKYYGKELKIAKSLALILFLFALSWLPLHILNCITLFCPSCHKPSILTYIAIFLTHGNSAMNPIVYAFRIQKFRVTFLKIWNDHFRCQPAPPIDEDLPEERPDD
# MEASUREMENT DESCRIPTION: Inhibition binding assay, human adenosine A1 receptor membranes, [3H]DPCPX
# PROTOCOL CONDITIONS: 1 nM [3H]DPCPX, 25° C., 1 h; IC50 converted to Ki with Cheng-Prusoff; read-out: A1 pKi (converted)
READOUT NAME: Ki (nM)

Please review the following examples before continuing.
Cc1cc(-c2c(-c3ccccc3)nc(N)n3c(=O)n(Cc4ccc(Cl)cn4)nc23)cc(CO)n1 [Example 1-55]    501
Cc1cc(-c2c(-c3ccccc3)nc(N)n3c(=O)n(CCc4ccccn4)nc23)cc(C)n1 [Example 1-86]    794
Nc1nc(-c2ccccc2)c(-c2cc(Cl)nc(CO)c2)c2nn(CCC(F)(F)F)c(=O)n12 [Example 2-45]    316

A: Cc1cc(-c2c(-c3ccccc3)nc(N)n3c(=O)n(CCc4ccccc4)nc23)cc(N2CCC2)n1 [Example 1-90]
B: Cc1cc(-c2c(-c3ccccc3)nc(N)n3c(=O)n(CC4CCCCO4)nc23)cc(C)n1 (single isomer, unassigned) [Example 2-82-iso-1]
C: Cc1cc(-c2c(-c3ccccc3)nc(N)n3c(=O)n(C(C)Cc4ccccc4)nc23)cc(C)n1 (stereo not shown) [Example 1-81]
# input Thanks in advance: please rank these 3 entries by Ki, highest to lowest. Put the labels in the order asked and list them.
# output C, A, B
